Test system: NCI-H522 lung
Assay: NCI tumour cell line growth inhibition, 48 h
So I've got a bunch of compounds here, and I need their TGI values.

Challenge: Need TGI of Cc1cc(N(CCC#N)CCC#N)ccc1N=Nc1cccc(Cl)c1 , thanks.
Response given: > 100 µM

Challenge: Here is the next compound: CO[C@@]12C[C@H]3[C@@H]([C@@H](O)[C@@H](OC(=O)/C=C/c4ccccc4)[C@@]4(O)C(C)(C)CCC[C@]34C)[C@@H](C)C1=CC(=O)O2
Response given: > 100 µM

Challenge: COc1cc2c(cc1OCCCCCCCCN1C(=O)c3cccc4cccc(c34)C1=O)N=C[C@@H]1CCCN1C2=O , same question.
Response given: 39.9 µM

Challenge: Repeat with CC(=O)N/N=C1/CC[C@@]2(C)C(=CC[C@H]3C4CCC(C(C)CCCC(C)C)[C@@]4(C)CCC32)C1(C)C (some centres undefined)
Response given: > 100 µM

Data credit: PubChem BioAssay (NCI)
